Below, each entry is listed alongside its reported emission maximum.
- PROCEDURE_SUMMARY: solvent given as SMILES
- ASSAY_CONTEXT: in ClCCl
Field format: number, assumed nm, no unit text.

>  <COMPOUND>
CCOC(=O)COc1ccc(/C=C/C2=C3c4ccccc4C(c4[nH]c(C)cc4C)=[N+]3[B-](F)(F)n3c(C)cc(C)c32)cc1

>  <NUMERIC_VALUE>
687

$$$$
>  <COMPOUND>
COc1ccc(-c2ccc3c(c2)[Si](C)(C)c2cc(-c4ccc(OC)cc4)ccc2C=C3)cc1

>  <NUMERIC_VALUE>
424

$$$$

Would you mind telling me what emission maximum value was observed for CC(C)[Si](C#Cc1c2cc3ccccc3cc2c(C#Cc2ccc(Br)cc2)c2cc3ccccc3cc12)(C(C)C)C(C)C ?
663

Would you mind telling me what emission maximum value was observed for COc1ccc(C2=C(c3ccc(OC)cc3)c3cccc4c5c(cc(c34)O2)=NC2C=C(Br)C(Br)=CC2N=5)cc1 (stereo unspecified) ?
609

Would you mind telling me what emission maximum value was observed for CCN(CC)c1ccc2cc(C#N)c(=N)oc2c1 ?
460

Would you mind telling me what emission maximum value was observed for CCN(CC)c1c2ccc(=[N+]3CCCCC3)cc-2oc2cc(N3CCCCC3)ccc12 ?
558
